- protocol: PK of single agents vs fixed dose combinations (FDC), single oral dose in healthy volunteers
- Format: in vivo, human
- condition-info: Arm 4 (FDC01) vs reference (Arm 1)
property-label: Least Square Means Ratio, AUClast (%)
Report the figure in % without appending any unit label.

Consider the worked cases shown below.
CC(C)OC(=O)[C@H](C)N[P@](=O)(OC[C@@]1(F)O[C@@H](n2ccc(=O)[nH]c2=O)[C@](C)(O)[C@@H]1O)Oc1ccccc1 [Compound (III)]    151.72
C[C@H](NP(=O)(O)OC[C@@]1(F)O[C@@H](n2ccc(=O)[nH]c2=O)[C@](C)(O)[C@@H]1O)C(=O)O [Compound A-3]    116.82
COC(=O)N[C@H](C(=O)N1[C@H](c2nc3cc(-c4cc5ccc4CCc4ccc(c(-c6ccc7[nH]c([C@@H]8C[C@@H]9CCCC[C@@H]9N8C(=O)[C@@H](NC(=O)OC)C(C)C)nc7c6)c4)CC5)ccc3[nH]2)C[C@@H]2CCCC[C@@H]21)C(C)C [ODV, Odalasvir]    180.14
C[C@]1(O)[C@H](n2ccc(=O)[nH]c2=O)O[C@](F)(CO)[C@H]1O [Compound A-1]    120.45

Next compound, Least Square Means Ratio, AUClast to be filled in.
Prompt: // Least Square Means Ratio, AUClast lookup, key: COc1ccc2c(O[C@@H]3C[C@H]4C(=O)N[C@]5(C(=O)NS(=O)(=O)C6CC6)C[C@H]5/C=C\CCCCN(C)C(=O)[C@@H]4C3)cc(-c3nc(C(C)C)cs3)nc2c1C [SMV, Simeprevir, reference compound]
Completion: 117.50

* * *

- protocol: PK of single agents vs fixed dose combinations (FDC), single oral dose in healthy volunteers
- Assay type: in vivo, human
- condition-info: human, in vivo, Arm 1 (reference): single agents together; read-out: AUClast (mean ± SD)
- Method: SMV (100 mg), ODV (50 mg), and Compound (III) (800 mg) were administered as three different formulations or together as single doses in vivo to healthy volunteers. […] PK parameters, including Cmax, tmax, AUClast, and AUC∞ were measured for Compound (III), ODV, SMV, and metabolites Compound A-I and Compound A-3 for each Arm of the study. […]
property-label: AUC(0-t) (ng·h/mL)
Report the figure in ng·h/mL without appending any unit label.

Prompt: // AUC(0-t) lookup, key: CC(C)OC(=O)[C@H](C)N[P@](=O)(OC[C@@]1(F)O[C@@H](n2ccc(=O)[nH]c2=O)[C@](C)(O)[C@@H]1O)Oc1ccccc1
Completion: 1160

* * *

- protocol: Phase-1 drug-drug interaction study in healthy volunteers (Compound (III) 800 mg, SMV 150 mg, Odalasvir 150 mg loading then 50 mg, once daily): plasma PK
- Format: in vivo, human
- condition-info: both sexes, human, plasma, oral, Group 2, Day 20 (ODV + SMV); read-out: AUC0-24
property-label: AUC0-24
# output: number + unit

Prompt: // AUC0-24 lookup, key: COC(=O)N[C@H](C(=O)N1[C@H](c2nc3cc(-c4cc5ccc4CCc4ccc(c(-c6ccc7[nH]c([C@@H]8C[C@@H]9CCCC[C@@H]9N8C(=O)[C@@H](NC(=O)OC)C(C)C)nc7c6)c4)CC5)ccc3[nH]2)C[C@@H]2CCCC[C@@H]21)C(C)C [ODV, Odalasvir]
Completion: 14 µg·h/mL
